Test system: K-562 leukemia
Assay: NCI-60 one-dose screen, 48 h
Settings: 10 µM
About 83,000 compounds went through this panel and 20% of them were active in at least one assay; those are over-represented in the sample as a whole. Calls of active or inactive are those of the source. Rule for the calls: active = growth percent below 10; inactive = the rest.
# valid calls are Y (active), N (inactive); nothing else

Recorded results for 9 compounds are shown here.
Nc1nnc(-c2c[nH]c3ccc(F)cc23)c(-c2c[nH]c3ncccc23)n1: N
CC1CC(c2ccc(N(C)C)cc2)=NN1c1nc(O)c(C2=c3cc(Br)ccc3=NC2=O)s1 (stereo not given): N
Cc1nn(-c2ccccc2)c2ncn(CC(=O)N/N=C/c3c[nH]c4ccccc34)c(=O)c12: N
Cc1ccc(C(=O)NNC(=O)CSc2nc3ccccc3c(=O)[nH]2)cc1: N
COc1ccc(-c2nc(-c3ccccc3)c(-c3ccccc3)n2-c2ccc(S(=O)(=O)Nc3ncccn3)cc2)cc1OC: N
Cc1ccc2nc(COc3ccc(C(=O)NNC(=S)NCCc4ccccc4)cc3)[nH]c2c1: N
O=c1cc(-c2ccccc2)oc2cc(OCCCCNCc3ccccc3)cc(O)c12: Y
COc1cc2c3c(n(CCCNCCO)c(=O)c2cc1OC)-c1nc2c(cc1C3=O)OCO2: N
COc1cc(/C=C/C(=O)c2cc(OC)c(OC)c(OC)c2)ccc1Oc1nc(Nc2ccc(F)cc2)nc(N(C)C)n1: Y

Below: the item to evaluate.
-- ask Dear colleague, could you share the recorded outcome for COC(=O)c1c(C(=O)OC)c2n(c1C)[C@@H]([C@@H](C)[C@H]1CC[C@H]3[C@@H]4CCC5=CC(=O)CC[C@]5(C)[C@H]4CC[C@]13C)SC2 when you have a moment?
-- reply N

* * *

Reported growth values are given for each entry in this list.
Test system: MDA-MB-231 breast
Assay: NCI-60 one-dose screen, 48 h (100 = growth as untreated, 0 = no growth, -100 = all killed)
Details: 10 µM
The panel holds about 83,000 compounds, 20% with a hit somewhere; the sample as a whole holds those more often.
Use % as the unit, but write only the number.

CC(=O)c1cc(C(=O)c2ccc3c(c2)NC(=O)CO3)n2ccc3ccccc3c12: 29.9
COc1ccccc1[C@H]1C(C(=O)c2ccc(O)cc2)C2(N[C@@H]1c1ccccc1)C(=O)Nc1ccc(Br)cc12 (some centres not stated): 32.9
CCCSc1nc(NC2CC2)c(C#N)c(-c2ccc(OC)cc2)n1: 85
CN1C(=O)N(C)C2SC(N/N=C/c3ccccc3F)=NC21 (configuration not stated): 50.2
C=C1CCC2C3(C)COC(c4cccc(F)c4)OC3CCC2(C)C1CC(O)C1=CCOC1=O (configuration not stated): 67.5
CC1=C(c2cc(-c3ccc(Cl)cc3)c(C#N)c(N)n2)C(c2ccccc2)NC(=S)N1 (configuration not stated): 51.9

Now, please, on to the next compound.
-- ask Item under review: COc1ccc(C(=O)CSc2nnc(-c3c[nH]c4ccccc34)n2-c2ccccc2)cc1 . Reported growth?
-- reply 32.5

* * *

Test system: HS 578T breast
Assay: NCI-60 one-dose screen, 48 h (100 = growth as untreated, 0 = no growth, -100 = all killed)
Details: 10 µM
About 83,000 compounds went through this panel and 20% of them were active in at least one assay; those are over-represented in the sample as a whole.
Reported growth values are given for each entry in this list.
Use % as the unit, but write only the number.

Check out these entries, answers already filled in.
O=C(Nc1cccc([N+](=O)[O-])c1)Nc1cccc([N+](=O)[O-])c1: 92.5
CN1C(=O)N(C)C2SC(N/N=C/C=C/c3ccccc3)=NC21 (stereo unspecified): 89.7
[2H]C([2H])([2H])Oc1ccc2ncc(C#Cc3cncc(C(=O)Nc4ccc(CN5CCN(C)CC5)c(C(F)(F)F)c4)c3)n2n1: -47.9
CN1CCc2c(sc3ncnc(N/N=C/c4cn(-c5ccccc5)nc4-c4ccc(Br)cc4)c23)C1: 70.1
CN1CCN(Cc2ccc(C(=O)Nc3cccc(Nc4ccc5c(O)cccc5n4)c3)cc2C(F)(F)F)CC1: -37.5
O=c1c2ccccc2nc(COc2ccccc2)n1/N=C/c1ccc(N2CCCC2)cc1: 94.8

Now, please, on to the next compound.
-- ask Record CCOC(=O)C1=C(N)N(c2ccccc2)C2=C(C(=O)CC(C)(C)C2)C1c1ccc(Cl)cc1 (stereo unspecified) : what is its growth with HS 578T breast?
-- reply 71.9
